Tested on: Es-2
Test: Primary qHTS to identify gynecologic anti-cancer compounds using libraries of approved drugs and bioactive compounds (AID 1345084); further: nearly all actives have a fitted effect of over 55% in size; further: potency means the concentration at half of the fitted maximal effect
Conditions: Gynecologic cancer cell panel viability, ATPlite luminescence, 48 h; series mostly up to 57.5 µM
Results filed as inconclusive are left out. Calls of active or inactive are those of the source. The call rests on the fitted dose curve; in most records, active means well fitted cell-killing curve with a large enough effect; inconclusive means small, poorly fitted or top-dose-only effect, or effect the other way; inactive means flat fitted curve, though single readings scatter.

compound	Potency
N[C@@H]1c2cccnc2[C@H](OC(=O)N2CCC(n3c(=O)[nH]c4ncccc43)CC2)CC[C@H]1c1cccc(F)c1F	inactive
Cn1cc(C2=C(c3coc4ccccc34)C(=O)NC2=O)c2cc(Br)ccc21	inactive
COc1cc(-c2nc(N[C@H](CO)Cc3ccccc3)ccc2C(=O)NCCOc2ccccc2)cc(OC)c1OC	inactive
CCOc1cc(C(C)(C)C)ccc1C1=N[C@@](C)(c2ccc(Cl)cc2)[C@@](C)(c2ccc(Cl)cc2)N1C(=O)N1CCN(CC(=O)N2CCOCC2)CC1	inactive
CC(C)c1cc2c(N3CCN(C4=NCC(C)(C)S4)CC3)ncnc2s1	inactive
C=C[C@]1(C)C[C@H](O)[C@H]2C(=C)C(=O)O[C@@H]2[C@H]1C(=C)CO	inactive
CC(C)(C[C@@](O)(Cc1cc2ccncc2[nH]1)C(F)(F)F)c1cc(F)ccc1O	inactive
O=c1[nH]c2ccc(C#CCN3CCC(Cc4ccccc4)CC3)cc2[nH]1	inactive
C[C@@H]1CC[C@]2(C(=O)O)CC[C@]3(C)C(=CCC4[C@@]5(C)CC[C@H](O)[C@](C)(C(=O)O)C5CC[C@]43C)C2[C@]1(C)O (some centres not stated)	inactive
C/C=C/[C@@H]1C=C[C@@H]2C[C@H](C)CC[C@H]2[C@]1(C)/C(O)=C1/C(=O)[C@@H](CO)N(C)C1=O	inactive
Cc1c(Cl)cccc1S(=O)(=O)Nc1nc(NCCc2ccccc2)nc2c1CN(Cc1ccccc1)CC2	inactive
C=C1C(=O)OC2C1CCC1(C)C(O)CC=C(C)C21 (configuration not stated)	inactive
C/C=C(\C)C(=O)OC1C(C)C2(O)C(C=C(CO)CC3(O)C(=O)C(C)=CC32)C2C(C)(C)C12OC(C)=O (configuration not stated)	0.224 µM (active)
Cc1cnn(-c2ccccc2)c1NC(=O)COCc1ccccc1	inactive
Clc1ccc(Cn2c(Cc3ccccc3)nc3ccccc32)cc1	inactive
Fc1ccc(-c2nc(-c3ccccc3F)[nH]c2-c2ccncc2)cc1	inactive
C=C1CCN([C@H](C)[C@](O)(Cn2cncn2)c2ccc(F)cc2F)CC1	inactive
CNC(=O)c1cc(Oc2ccc(NC(=O)c3cccc(C(F)(F)F)c3)cc2)ccn1	inactive
C=C(C)C(=O)O[C@H]1C[C@@](C)(O)C2(O)CCC(C)(/C=C3/OC(=O)C(COC)=C31)O2 (some centres not stated)	11.2 µM (active)
COc1cc(C(N)=O)nc(-c2ccccn2)c1O	inactive
CCCC(=O)C1(c2ccccc2)CCN(C(=O)[C@@H](Cc2ccc(OC)cc2)NC(=O)[C@@H](N)Cc2cncn2C)CC1	inactive
CC(=O)CC(=O)Nc1ccc(Cl)c(C(F)(F)F)c1	inactive
CC(C)(C)c1ccc(NC(=O)N2CCN(c3ncccc3Cl)CC2)cc1	inactive
Cc1ccc(OC[C@H](O)[C@H](C)NC(C)C)c2c1CCC2	inactive
Cc1nc2cc(C(=O)NCc3ccccn3)nn2c(C)c1Cc1cccc(Cl)c1	inactive
Cc1cc(-c2nc3cc(F)ccc3s2)ccc1NC(=O)[C@@H](N)CCCCN	15.8 µM (active)
Cc1cccc(CC(=O)N2CCc3c2ccc(-c2cn(C)c4ncnc(N)c24)c3F)n1	inactive
Cc1cc(N2CCOCC2)ccc1Nc1nc(NC2CCCCC2)c2[nH]cnc2n1	inactive
CCCCCCOC(=O)/N=C(\N)c1ccc(NCc2nc3cc(C(=O)N(CCC(=O)OCC)c4ccccn4)ccc3n2C)cc1	inactive
COc1ccc(CCCN2CCC(COC(c3ccccc3)c3ccccc3)CC2)cc1	inactive
C=C1C(=O)O[C@H]2C1CCC(C)=C1C(=O)C=C(C)[C@@]12O (some centres not stated)	inactive
Cc1cc(-c2cnc(N)c3c(-c4ccc5scnc5c4)csc23)n(C)n1	inactive
CCC(C)C(=O)Oc1cc(C)ccc1C1(COC(=O)C(C)C)CO1 (configuration not stated)	inactive
C=C1CC2[C@@]3(C)C=CC(=O)C(C)(C)C3=C(O)C(=O)[C@@]2(C)C2(C(=O)OC)C(=O)C(C)OC(=O)[C@@]12C (some centres not stated)	inactive
N#Cc1ccc(COC[C@H]2O[C@@H](n3c(NCc4ccc(Cl)c(Cl)c4)nc4c(N)ncnc43)[C@H](O)[C@@H]2O)cc1	inactive
COc1cc2c(cc1OC(C)C)[C@H](c1ccc(Cl)cc1)N(c1ccc(N(C)CC3CCC(N4CCN(C)C(=O)C4)CC3)cc1)C(=O)C2 (some centres not stated)	inactive
CCCOc1ccc(S(=O)(=O)N2CCN(CCO)CC2)cc1-c1nc2c(CCC)cn(CC)c2c(=O)[nH]1	inactive
